Entry source: PubChem BioAssay

Each item that follows carries a reported composite z-score.
# protocol-description: probe aEGFR binding to arrayed compounds – biochemical, biotinylated probe, 635/667 nm fluorescence, primary screen (AID 1097);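 note: probe is a biotinylated anti-EGFR antibody binding compounds printed on slides; score combines fluorescence near 667 nm and signal to noise of each spot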
# recorded-conditions: small-molecule microarray, higher = more signal

Use these answered entries as a reference point.
compound | readout-type | value-measured
COCCOC(=O)N1C(=O)[C@@]2(c3ccccc31)[C@H](C(=O)N1CCCCCCC1)[C@H]1C(=O)O[C@H](c3ccccc3)[C@H](c3ccccc3)N1[C@@H]2c1ccccc1OCCO | composite z-score | 1.03
C=CCC(OC(C)=O)[C@@H]1[C@@H](N(Cc2cc3ccccc3o2)C(=O)c2cccc3ccccc23)c2cc(OCCCO)ccc2N1C(=O)Cc1ccc(OC)cc1 (some centres undefined) | composite z-score | -0.0967
C=CC[C@@]1(C(=O)NCc2ccccc2)N=C(c2ccc(OCCCO)cc2)O[C@@H]1c1ccccc1CN=[N+]=[N-] | composite z-score | 0.0149
C=CCCN(CC#C[C@H]1Oc2ccccc2S(=O)(=O)N2CCC[C@@H]12)S(=O)(=O)c1ccc(C)cc1 | composite z-score | -0.145

Ask: Entry under review: COC(=O)c1nc2oc1CC[C@@H](CO)NC(=O)N(C)Cc1cn(nn1)C[C@H](Cc1ccccc1)NC2=O . Reported composite z-score?
Reply: -0.181

Ask: Return reported composite z-score; argument: CC(C)OC(=O)C1=CCC(c2cccc(Cl)c2)O1 (centres undefined)
Reply: -0.306

Ask: Reported composite z-score for CN(C)CCCN1C(=O)[C@@]2(c3ccc([N+](=O)[O-])cc3)CC(=O)N(C3CCCCC3)[C@@H]2c2ccc(CO)cc21 : what is it?
Reply: -0.103

Ask: Which composite z-score value is on record for CCCC[C@H]1C[C@@H]1[C@@H]1N(P(=O)(c2ccccc2)c2ccccc2)[C@](CO)(c2ccccc2)CC12CC2 ?
Reply: 0.0585

Ask: Entry COCCCNC(=O)[C@@]1(Sc2ccc(C)cc2)CC(=O)N(Cc2ccccc2)[C@@H]1c1ccc(CO)cc1 : reported composite z-score = ?
Reply: 0.03
